Sourced from paper PMC4450297

- Test system: HGC-27
- protocol_summary: Cell panel screen (CellTiter-Glo)
- Assay type: cell-based, human
- run_parameters: HGC-27 (Stomach), 20 micromolar, 72 hrs

[
  {
    "compound": "O=c1c2ccc(O)c(O)c2oc2cccc(O)c12 [gl-23]",
    "Percent Inhibition [%]": -6
  },
  {
    "compound": "COc1c(CC=C(C)C)cc2c(=O)c3c(O)cc(O)cc3oc2c1O [gl-16]",
    "Percent Inhibition [%]": 58
  },
  {
    "compound": "CC(C)=CCc1c2c(c(O)c3c1OC14C(=CC5CC1C(C)(C)OC4(CC=C(C)C(=O)O)C5=O)C3=O)C=CC(C)(C)O2 (centres unmarked) [GB27]",
    "Percent Inhibition [%]": 98
  },
  {
    "compound": "COC(=O)C1OC(Oc2cc(O)c3c(c2)OC(c2ccc(O)c(O)c2)CC3=O)C(O)C(O)C1O (centres unmarked) [gly-5]",
    "Percent Inhibition [%]": -2
  },
  {
    "compound": "O=C1c2c(O)cc(O)cc2OC(c2ccc(O)cc2)C1c1c(O)cc(O)c2c(=O)cc(-c3ccc(O)c(O)c3)oc12 (centres unmarked) [WZ-4]",
    "Percent Inhibition [%]": -4
  },
  {
    "compound": "C=C(C)C(O)Cc1c(O)cc2oc3cc(O)c(O)c(CC=C(C)C)c3c(=O)c2c1O (centres unmarked) [bn-17, Bannaxanthone B]",
    "Percent Inhibition [%]": 62
  },
  {
    "compound": "CCOC1C2C(=O)c3c(O)c4c(c(CC=C(C)C)c3O[C@@]23[C@H]2C[C@@H]1C(=O)[C@]3(C/C=C(/C)C(=O)O)OC2(C)C)OC(C)(CCC=C(C)C)C=C4 (some centres unmarked) [GB19]",
    "Percent Inhibition [%]": 99
  },
  {
    "compound": "CC(C)=CCc1c(O)cc2oc3cc(O)c(O)c(CC=C(C)C)c3c(=O)c2c1O [Ge9]",
    "Percent Inhibition [%]": 97
  }
]
